Where do the numbers come from? From patent US9650339B2.

experimentalTarget: UniProt Q9UGL1
protocolNotes: Histone lysine demethylase AlphaLISA assay, KDM5B
Type: biochemical
assaySetup: read-out: KDM5B HDME Inhibition IC50
A collection of compounds and their measured IC50

Check out these entries, answers already filled in.
[
  {
    "compound": "NCc1ccnc(CNCCCCN2CCC2)c1",
    "testReadout": "IC50",
    "assayValue": "250 to 2500 nM"
  },
  {
    "compound": "COCCNCc1ccnc(CNCCCN(C)Cc2ccccc2)c1",
    "testReadout": "IC50",
    "assayValue": "250 to 2500 nM"
  },
  {
    "compound": "O=Cc1ccnc(CNCC(=O)N2CCC(Cc3ccccc3)CC2)c1",
    "testReadout": "IC50",
    "assayValue": "< 250 nM"
  },
  {
    "compound": "CN(C)CC1CCC(CNCc2cc(/C=N/C3CC3)ccn2)CC1 (centres unmarked)",
    "testReadout": "IC50",
    "assayValue": "250 to 2500 nM"
  }
]

// recorded IC50 for CCN(CCN(C)C)C(=O)CNCc1cc(/C=N/CC(CO)Cc2ccccc2)ccn1 (centres unmarked) : < 250 nM

---

A collection of molecules and their measured IC50
experimentalTarget: KDM4B (JMJD2B) (Homo sapiens)
Sequence (O94953 2-500): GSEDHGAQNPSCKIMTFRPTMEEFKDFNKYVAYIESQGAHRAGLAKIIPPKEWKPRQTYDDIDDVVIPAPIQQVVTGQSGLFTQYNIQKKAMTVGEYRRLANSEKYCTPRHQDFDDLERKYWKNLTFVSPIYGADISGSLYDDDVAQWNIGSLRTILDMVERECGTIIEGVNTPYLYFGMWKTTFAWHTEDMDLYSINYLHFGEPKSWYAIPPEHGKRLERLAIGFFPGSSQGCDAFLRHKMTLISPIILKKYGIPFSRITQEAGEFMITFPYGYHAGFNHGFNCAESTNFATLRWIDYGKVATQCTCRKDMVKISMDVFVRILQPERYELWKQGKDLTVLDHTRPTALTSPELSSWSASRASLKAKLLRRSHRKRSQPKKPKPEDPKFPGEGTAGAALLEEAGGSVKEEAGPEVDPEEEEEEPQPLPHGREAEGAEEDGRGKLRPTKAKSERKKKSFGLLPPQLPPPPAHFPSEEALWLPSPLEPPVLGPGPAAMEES

# CN1CCCC1CCNCc1cc(/C=N/C2CC2)ccn1 (centres unmarked) with KDM4B (JMJD2B) (Homo sapiens): IC50 is 250 to 2500 nM

# "c1ccc(CN2CCC[C@H]2CNCc2cc(CNCC3CC3)ccn2)cc1" with KDM4B (JMJD2B) (Homo sapiens): IC50 is > 2500 nM

# "CON=Cc1ccnc(CNCCCN(C)C)c1" with KDM4B (JMJD2B) (Homo sapiens): IC50 is < 250 nM

---

experimentalTarget: KDM7 (PHF8) (Homo sapiens)
Sequence (Q9UPP1 37-440 limits assumed): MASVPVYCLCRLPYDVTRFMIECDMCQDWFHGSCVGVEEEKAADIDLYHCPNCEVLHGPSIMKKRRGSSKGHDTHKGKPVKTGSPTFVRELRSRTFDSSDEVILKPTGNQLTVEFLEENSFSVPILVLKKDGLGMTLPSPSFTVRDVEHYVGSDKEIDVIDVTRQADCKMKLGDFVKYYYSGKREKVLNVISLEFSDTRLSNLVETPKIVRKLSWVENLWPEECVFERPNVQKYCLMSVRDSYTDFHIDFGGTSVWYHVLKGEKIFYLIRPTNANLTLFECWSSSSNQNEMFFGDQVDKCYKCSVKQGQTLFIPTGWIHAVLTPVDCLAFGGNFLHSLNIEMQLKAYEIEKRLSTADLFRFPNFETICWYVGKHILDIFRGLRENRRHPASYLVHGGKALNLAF
A collection of molecules and their measured IC50

Check out these entries, answers already filled in.
[
  {
    "molecule": "CCN(CCN(C)C)C(=O)CNCc1cc(/C=N/CCO)ccn1",
    "IC50": "250 to 2500 nM"
  },
  {
    "molecule": "CCN(CC)CCCCNCc1cc(C2NCCN2C)ccn1 (stereo not shown)",
    "IC50": "> 2500 nM"
  },
  {
    "molecule": "CN(C)CC1CCC(CNCc2cc(C=O)ccn2)CC1 (stereo not shown)",
    "IC50": "> 2500 nM"
  }
]

# "CN(C)C(=O)CNCc1cc(/C=N/CCCc2ccccc2)ccn1" with KDM7 (PHF8) (Homo sapiens): IC50 is > 2500 nM

---

Test system: H3K4me3 mark
protocolNotes: Histone lysine demethylase immunofluorescence assay, non-transfected U2OS cells
Type: cell-based
assaySetup: Homo sapiens, staining of the H3K4me3 mark, 20 hours incubation with compound
testReadout: IC50

[
  {
    "compound": "NCc1ccnc(CNCCCCN2CCC2)c1 [Compound 7]",
    "IC50": "< 250 nM"
  }
]

// recorded IC50 for CCN(CC1CCCN1C)C(=O)CNCc1cc(/C=N/CCO)ccn1 (centres unmarked) [Compound 79] : < 250 nM

// recorded IC50 for COc1ccccc1CN1CCC(NC(=O)CNCc2cc(CNC3CC3)ccn2)CC1 [Compound 20] : 250 to 2500 nM

// recorded IC50 for CCN(CCN(C)C)C(=O)CNCc1cc(C=O)ccn1 [Compound 101] : < 250 nM

// recorded IC50 for CCN(CC)CCCCNCc1cc(/C=N/CC(F)(F)C(F)(F)F)ccn1 [Compound 62] : < 250 nM

// recorded IC50 for CN(C)CC1CCC(CNCc2cc(C=O)ccn2)CC1 (centres unmarked) [Compound 97] : < 250 nM

// recorded IC50 for CCN(CCN(C)C)C(=O)CNCc1cc(CN)ccn1 [Compound 4] : < 250 nM

---

Parameter 'readout' = IC50; parameter 'system' = KDM7 (PHF8) (Homo sapiens).

Check out these entries, answers already filled in.
[
  {
    "compound": "CCCCCCCC/N=C/c1ccnc(CNCC(=O)N(CC)CC)c1",
    "IC50": "> 2500 nM"
  },
  {
    "compound": "O=Cc1ccnc(CNCCCCN(Cc2ccccc2)C2CC2)c1",
    "IC50": "> 2500 nM"
  },
  {
    "compound": "CN(Cc1ccccc1F)C(=O)CNCc1cc(/C=N/CCO)ccn1",
    "IC50": "> 2500 nM"
  },
  {
    "compound": "CN(C)CCC/N=C/c1ccnc(CNCCCN(C)C)c1",
    "IC50": "> 2500 nM"
  },
  {
    "compound": "CCN(CCN(C)C)C(=O)CNCc1cc(CNC(=O)C(F)(F)F)ccn1",
    "IC50": "> 2500 nM"
  },
  {
    "compound": "CCN(CC)CCCCNCc1cc(/C=N/CC(F)(F)C(F)(F)F)ccn1",
    "IC50": "> 2500 nM"
  },
  {
    "compound": "CCN(CC)CCCCNC(=O)CNCc1cc(/C=N/C2CC2)ccn1",
    "IC50": "< 250 nM"
  },
  {
    "compound": "O=C(CNCc1cc(/C=N/C2CC2)ccn1)NC1CCN(Cc2ccccc2)C1 (centres unmarked)",
    "IC50": "< 250 nM"
  },
  {
    "compound": "CCN(CC)CCCCNC(=O)CNCc1cc(C=O)ccn1",
    "IC50": "< 250 nM"
  },
  {
    "compound": "CN(CCCNCc1cc(/C=N/C2CC2)ccn1)Cc1ccccc1",
    "IC50": "> 2500 nM"
  }
]

# "CCN(CCN(C)C)C(=O)CNCc1cc(/C=N/CCC2CCCCC2)ccn1" with KDM7 (PHF8) (Homo sapiens): IC50 is > 2500 nM

# "CN(C)CCNCc1cc(C=O)ccn1" with KDM7 (PHF8) (Homo sapiens): IC50 is > 2500 nM

# O=Cc1ccnc(CNCC(=O)NC2CCN(Cc3ccccc3)C2)c1 (centres unmarked) with KDM7 (PHF8) (Homo sapiens): IC50 is > 2500 nM

# "CCN(CC)CCCCNCc1cc(CNC(=O)C(=O)O)ccn1" with KDM7 (PHF8) (Homo sapiens): IC50 is > 2500 nM

# CCN1CCCC1CNC(=O)CNCc1cc(C=O)ccn1 (centres unmarked) with KDM7 (PHF8) (Homo sapiens): IC50 is 250 to 2500 nM

---

A collection of molecules and their measured pIC50
experimentalTarget: KDM4A (JMJD2A) (Homo sapiens, UniProt O75164)
Sequence (O75164 1-350): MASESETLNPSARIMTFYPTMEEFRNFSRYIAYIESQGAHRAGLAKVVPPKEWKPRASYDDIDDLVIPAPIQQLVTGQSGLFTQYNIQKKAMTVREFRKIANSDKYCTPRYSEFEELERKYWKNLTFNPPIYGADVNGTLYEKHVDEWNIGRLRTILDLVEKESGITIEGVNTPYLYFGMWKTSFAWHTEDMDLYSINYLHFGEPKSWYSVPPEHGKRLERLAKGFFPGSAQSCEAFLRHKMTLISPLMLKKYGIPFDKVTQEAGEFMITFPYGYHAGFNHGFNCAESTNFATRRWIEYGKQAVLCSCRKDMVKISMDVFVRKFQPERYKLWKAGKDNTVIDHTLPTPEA
pIC50: −log10 of the molar value.

Check out these entries, answers already filled in.
[
  {
    "molecule": "CN1CCN(C(=O)CNCc2cc(C=O)ccn2)CC1 [Compound 103]",
    "pIC50": "< 5.60"
  },
  {
    "molecule": "CCCCCCCC/N=C/c1ccnc(CNCC(=O)N(CC)CC)c1 [Compound 58]",
    "pIC50": "< 5.60"
  },
  {
    "molecule": "O=Cc1ccnc(CNCC(=O)NC2CCN(Cc3ccccc3)C2)c1 (stereo not drawn) [Compound 113]",
    "pIC50": "5.60 to 6.60"
  },
  {
    "molecule": "CN(C)CCCNCc1cc(/C=N/CCN(C)C)ccn1 [Compound 38]",
    "pIC50": "< 5.60"
  }
]

// recorded pIC50 for CN(C)C/C=C\CNCc1cc(C=O)ccn1 [Compound 99] : < 5.60

---

experimentalTarget: KDM5B (PLU-1) (Homo sapiens, UniProt Q9UGL1)
Sequence (Q9UGL1 1-809): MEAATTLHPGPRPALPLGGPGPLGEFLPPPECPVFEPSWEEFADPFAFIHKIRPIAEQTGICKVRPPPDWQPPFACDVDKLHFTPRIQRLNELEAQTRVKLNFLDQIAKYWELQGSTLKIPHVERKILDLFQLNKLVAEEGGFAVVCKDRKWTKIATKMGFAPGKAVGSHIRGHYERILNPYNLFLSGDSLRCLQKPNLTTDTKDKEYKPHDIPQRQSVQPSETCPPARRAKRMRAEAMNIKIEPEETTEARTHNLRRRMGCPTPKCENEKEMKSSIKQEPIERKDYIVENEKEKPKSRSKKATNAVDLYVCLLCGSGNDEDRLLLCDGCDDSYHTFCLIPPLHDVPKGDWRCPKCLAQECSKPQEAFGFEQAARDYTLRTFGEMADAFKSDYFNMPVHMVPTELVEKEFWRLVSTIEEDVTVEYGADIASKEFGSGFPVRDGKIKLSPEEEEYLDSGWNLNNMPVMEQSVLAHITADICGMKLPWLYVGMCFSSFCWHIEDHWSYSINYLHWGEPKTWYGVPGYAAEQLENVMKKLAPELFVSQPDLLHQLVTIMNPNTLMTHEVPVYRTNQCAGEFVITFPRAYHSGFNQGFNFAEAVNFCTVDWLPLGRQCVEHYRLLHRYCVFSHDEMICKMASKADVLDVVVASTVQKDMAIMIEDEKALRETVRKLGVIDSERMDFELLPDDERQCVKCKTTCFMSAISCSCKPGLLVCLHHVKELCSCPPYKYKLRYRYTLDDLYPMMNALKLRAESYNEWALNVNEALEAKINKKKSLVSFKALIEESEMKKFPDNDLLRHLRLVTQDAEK
protocolNotes: Histone lysine demethylase AlphaLISA assay, KDM5B
Assay type: biochemical
assaySetup: read-out: KDM5B HDME Inhibition IC50
testReadout: IC50

[
  {
    "compound": "CNCc1ccnc(CNCCCN(C)Cc2ccccc2)c1",
    "IC50": "< 250 nM"
  }
]

// recorded IC50 for "CCN(CCN(C)C)C(=O)CNCc1cc(/C=N/CCCO)ccn1" : < 250 nM

// recorded IC50 for "CN(C)CCCNCc1cc(CN)ccn1" : 250 to 2500 nM

// recorded IC50 for "CCN(C[C@@H]1CCC[C@@H]1N(C)C)C(=O)CNCc1cc(/C=N/CCO)ccn1" : < 250 nM
